# Assay system: T1, GST-tagged DIX domain of mouse DVL1 (residues 1-106) with Y17D (mouse, UniProt P51141 1-106, Y17D)
# T1 construct: DIX domain of mouse DVL1, residues 1-106, Y17D to eliminate DIX aggregation; A longer construct 1-200 (DIX-L) is named in the methods but tied to no experiment; also called DVL DIX; GST-DVL; source: E. coli, purified (glutathione-agarose beads, size-exclusion chromatography)
# T1 sequence (looked up): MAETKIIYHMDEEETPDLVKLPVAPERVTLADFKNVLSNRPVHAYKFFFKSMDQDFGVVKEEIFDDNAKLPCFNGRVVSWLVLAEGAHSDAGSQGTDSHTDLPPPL
# Test: pull-down; GST-DIX (or GST) 0.5 μg and His-tagged PIP5K1 0.5 μg in 200 μl of 10 mM HEPES (pH 7.4), 150 mM NaCl, 0.2% Triton, 0.01% SDS, 3 mM dithiothreitol, 10% glycerol; 4 °C overnight; glutathione beads; western blotting
# Particulars: both partners purified
Recorded metric: change in the interaction against the wild type

Per the records, this binder ( zebrafish PIP5K1A kinase catalytic domain, F131A mutant (domain or fragment, kinase catalytic domain of zebrafish PIP5K1Aα, residues 49-431; C-terminal 'Leu-Glu' that precedes the His6 tag; source: E. coli BL21-CodonPlus(DE3)-RIL, purified in the same way as the wild-type protein; not shown: His6, C-terminal, kept) MASTGETTYKKTTSSALKGAIQLGITHSVGSLSQKPERDVLMQDFEVVESIFFPSQGSSSTPGHHHGDFKFKTYAPIAFRYFREMAGIRPDDYLYSLCNEPLIELSNPGASGSLFYVSSDDEFIIKTVQHKEAEFLQTLLPGYFMNLNQNMRTLLPKFYGLYCVQADGKNIRIVVMNNLLPRAVPMHLKFDLKGSTYKRRASPKERSKGVPTYKDLDFMQDMPEGILLENDHYTALSRTMQRDCRVLQSFKIMDYSLLVGIHILHRAGEEASTAVPDTQKKGQGQKPLYCTAIESIQGESKSKTSPQPYESMGGIPAFNSKGERLLVFIGIIDILQSYRLVKKLEHSWKALLHDGDTVSVHRPSFYADRFQKFMCSTVFRKSQLKTLE ) has change in the interaction against the wild type equal to ≤ 20%

// zebrafish PIP5K1A kinase catalytic domain, Y140A mutant (domain or fragment, kinase catalytic domain of zebrafish PIP5K1Aα, residues 49-431; the residue is printed 'Try-140' in the results and Y140A later; C-terminal 'Leu-Glu' that precedes the His6 tag; also called Try-140 to Ala; source: E. coli BL21-CodonPlus(DE3)-RIL, purified in the same way as the wild-type protein; not shown: His6, C-terminal, kept) MASTGETTYKKTTSSALKGAIQLGITHSVGSLSQKPERDVLMQDFEVVESIFFPSQGSSSTPGHHHGDFKFKTYAPIAFRYFREMFGIRPDDYLASLCNEPLIELSNPGASGSLFYVSSDDEFIIKTVQHKEAEFLQTLLPGYFMNLNQNMRTLLPKFYGLYCVQADGKNIRIVVMNNLLPRAVPMHLKFDLKGSTYKRRASPKERSKGVPTYKDLDFMQDMPEGILLENDHYTALSRTMQRDCRVLQSFKIMDYSLLVGIHILHRAGEEASTAVPDTQKKGQGQKPLYCTAIESIQGESKSKTSPQPYESMGGIPAFNSKGERLLVFIGIIDILQSYRLVKKLEHSWKALLHDGDTVSVHRPSFYADRFQKFMCSTVFRKSQLKTLE : change in the interaction against the wild type value = ≤ 20%

Recorded result, zebrafish PIP5K1A kinase catalytic domain, E167A mutant (domain or fragment, kinase catalytic domain of zebrafish PIP5K1Aα, residues 49-431; C-terminal 'Leu-Glu' that precedes the His6 tag; source: E. coli BL21-CodonPlus(DE3)-RIL, purified in the same way as the wild-type protein; not shown: His6, C-terminal, kept) MASTGETTYKKTTSSALKGAIQLGITHSVGSLSQKPERDVLMQDFEVVESIFFPSQGSSSTPGHHHGDFKFKTYAPIAFRYFREMFGIRPDDYLYSLCNEPLIELSNPGASGSLFYVSSDDAFIIKTVQHKEAEFLQTLLPGYFMNLNQNMRTLLPKFYGLYCVQADGKNIRIVVMNNLLPRAVPMHLKFDLKGSTYKRRASPKERSKGVPTYKDLDFMQDMPEGILLENDHYTALSRTMQRDCRVLQSFKIMDYSLLVGIHILHRAGEEASTAVPDTQKKGQGQKPLYCTAIESIQGESKSKTSPQPYESMGGIPAFNSKGERLLVFIGIIDILQSYRLVKKLEHSWKALLHDGDTVSVHRPSFYADRFQKFMCSTVFRKSQLKTLE , change in the interaction against the wild type: ≤ 20%

Value source: paper PMC4570271
